assay: solubility of organic semiconductor in solvent (Table 1, formulation and processing)
Type: physicochemical
experimental-setup: solvent THF
parameter: solubility in THF

Report measured solubility in THF; entry is CCCCCC(C)Oc1ccc(-c2ccc(-c3ccc(-c4ccc(OC(C)CCCCC)cc4)s3)s2)cc1 (stereo not shown) [6(1Me)-O-PTTP-O- 6(1Me)] ~89,000 ppm
